This collection of values is drawn from patent US10322118B2.

measurementTarget: Cif (Pseudomonas aeruginosa (strain UCBPP-PA14), UniProt A0A0H2ZD27)
Sequence (A0A0H2ZD27 25-319 limits assumed): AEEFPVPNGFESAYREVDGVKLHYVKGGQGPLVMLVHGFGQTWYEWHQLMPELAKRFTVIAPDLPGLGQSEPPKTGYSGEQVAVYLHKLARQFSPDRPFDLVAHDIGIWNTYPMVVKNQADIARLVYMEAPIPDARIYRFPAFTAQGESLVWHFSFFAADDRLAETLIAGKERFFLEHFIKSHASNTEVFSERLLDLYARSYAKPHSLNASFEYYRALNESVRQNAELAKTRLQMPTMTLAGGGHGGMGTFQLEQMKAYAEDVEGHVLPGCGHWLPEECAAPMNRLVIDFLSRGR
assayOverview: Secondary screen (sextuplicate) with fluorogenic substrate CMNGC;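 further: purified enzyme assay in 96-well plates, 200 µL volume, fluorescence recorded each minute across a 60 min reaction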
Format: biochemical
conditionDescription: read-out: % Inhibition, plate 1
Counter-ions that a name gives are not always drawn.
measureName: inhibition at 10 µM (%)

compound="CCCCCCCCCCCCCCOS(=O)(=O)O [Sodium tetradecyl sulfate]" measurename="inhibition at 10 µM" readoutunits=% obsvalue=9
compound="CC(C)Cc1ccc(C(C)C(=O)O)cc1 (centres unmarked)" measurename="inhibition at 10 µM" readoutunits=% obsvalue=1
compound="O=C1CC2(CCCC2)CC(=O)N1CCCCN1CCN(c2ncccn2)CC1 [Buspirone hydrochloride]" measurename="inhibition at 10 µM" readoutunits=% obsvalue=0
compound="C[N+](C)(C)CC(=O)O [Betaine hydrochloride]" measurename="inhibition at 10 µM" readoutunits=% obsvalue=6
compound="CC(=O)CC(c1ccccc1)c1c(O)c2ccccc2oc1=O (centres unmarked)" measurename="inhibition at 10 µM" readoutunits=% obsvalue=12
compound="CN(C)CCOc1ccc(/C(=C(/CCCl)c2ccccc2)c2ccccc2)cc1 [Toremiphene citrate]" measurename="inhibition at 10 µM" readoutunits=% obsvalue=3
compound="CN(C)CCCN1c2ccccc2CCc2ccc(Cl)cc21 [Clomipramine hydrochloride]" measurename="inhibition at 10 µM" readoutunits=% obsvalue=0
compound=O=C(CCCCCCC(=O)Nc1ccccc1)NO measurename="inhibition at 10 µM" readoutunits=% obsvalue=5
compound=CCN(CC)CCOc1ccc2c(c1)C(=O)c1cc(OCCN(CC)CC)ccc1-2 measurename="inhibition at 10 µM" readoutunits=% obsvalue=4
compound="CN(C)CCCN1c2ccccc2Sc2ccc(C(F)(F)F)cc21 [Triflupromazine hydrochloride]" measurename="inhibition at 10 µM" readoutunits=% obsvalue=4
compound=Nc1nc2c(ncn2CCC(CO)CO)c(=O)[nH]1 measurename="inhibition at 10 µM" readoutunits=% obsvalue=-11
compound=CC1=NN(c2ccccc2)C(=O)C1 measurename="inhibition at 10 µM" readoutunits=% obsvalue=21
compound=Nc1nc(Cl)nc2c1ncn2[C@@H]1O[C@H](CO)[C@@H](O)[C@@H]1F measurename="inhibition at 10 µM" readoutunits=% obsvalue=7
compound="CC(C(=O)O)c1cccc(C(=O)c2ccccc2)c1 (centres unmarked)" measurename="inhibition at 10 µM" readoutunits=% obsvalue=2
compound=C[C@]12CC[C@@H]3c4ccc(O)cc4CC[C@H]3[C@@H]1CC[C@@H]2O measurename="inhibition at 10 µM" readoutunits=% obsvalue=4
compound=Cc1c(Nc2ncccc2C(=O)O)cccc1C(F)(F)F measurename="inhibition at 10 µM" readoutunits=% obsvalue=13
compound="COC(=O)/C=C/C(=O)OC [Dimethyl fumarate]" measurename="inhibition at 10 µM" readoutunits=% obsvalue=3
compound=C=C(NC(=O)C(=C)NC(=O)c1csc(C2=N[C@@H]3c4csc(n4)[C@H]4NC(=O)c5csc(n5)[C@H]([C@](C)(O)[C@@H](C)O)NC(=O)[C@H]5CSC(=N5)/C(=C/C)NC(=O)[C@H]([C@@H](C)O)NC(=O)c5csc(n5)[C@]3(CC2)NC(=O)[C@H](C)NC(=O)C(=C)NC(=O)[C@H](C)NC(=O)[C@H]([C@@H](C)CC)N[C@@H]2C=Cc3c([C@H](C)O)cc(nc3[C@H]2O)C(=O)O[C@@H]4C)n1)C(N)=O measurename="inhibition at 10 µM" readoutunits=% obsvalue=14
compound="NCC(O)c1ccc(O)cc1 (centres unmarked) [Octopamine hydrochloride]" measurename="inhibition at 10 µM" readoutunits=% obsvalue=1
compound=N#C[C@@H]1C[C@@H]2C[C@@H]2N1C(=O)[C@@H](N)C12CC3CC(CC(O)(C3)C1)C2 measurename="inhibition at 10 µM" readoutunits=% obsvalue=5
compound="Cc1nccnc1N1CCCCC1 [Modaline sulfate]" measurename="inhibition at 10 µM" readoutunits=% obsvalue=10
compound=C=CC1=C(C)c2cc3[nH]c(cc4nc(cc5[nH]c(cc1n2)c(C)c5CCC(=O)O)C(CCC(=O)O)=C4C)c(C)c3C=C measurename="inhibition at 10 µM" readoutunits=% obsvalue=12
compound="CO[C@@]1(NC(=O)Cc2cccs2)C(=O)N2C(C(=O)O)=C(COC(N)=O)CS[C@@H]21 [Cefoxitin sodium]" measurename="inhibition at 10 µM" readoutunits=% obsvalue=-3
compound=Nc1nc(N)c2nc(-c3ccccc3)c(N)nc2n1 measurename="inhibition at 10 µM" readoutunits=% obsvalue=15
compound="CCOC(=O)[C@H](CCc1ccccc1)N[C@@H](C)C(=O)N1CCC[C@H]1C(=O)O [Enalapril maleate]" measurename="inhibition at 10 µM" readoutunits=% obsvalue=-6
compound=Cc1cccc(Nc2ccccc2C(=O)O)c1C measurename="inhibition at 10 µM" readoutunits=% obsvalue=5
compound=C=CCc1ccc(O)c(OC)c1 measurename="inhibition at 10 µM" readoutunits=% obsvalue=4
compound=Nc1ccc(S(=O)(=O)Nc2ncccn2)cc1 measurename="inhibition at 10 µM" readoutunits=% obsvalue=23
compound=S=c1nc[nH]c2nc[nH]c12 measurename="inhibition at 10 µM" readoutunits=% obsvalue=5
compound="CN1CCCC(n2nc(Cc3ccc(Cl)cc3)c3ccccc3c2=O)CC1 (centres unmarked) [Azelastine hydrochloride]" measurename="inhibition at 10 µM" readoutunits=% obsvalue=30
compound="NC(CO)C(=O)NNCc1ccc(O)c(O)c1O (centres unmarked) [Benserazide hydrochloride]" measurename="inhibition at 10 µM" readoutunits=% obsvalue=77
compound=NC[C@H]1O[C@H](O[C@H]2[C@H](O)[C@@H](O[C@H]3O[C@H](CO)[C@@H](O)[C@H](N)[C@H]3O)[C@H](N)C[C@@H]2N)[C@H](N)C[C@@H]1O measurename="inhibition at 10 µM" readoutunits=% obsvalue=-5
compound=C[C@]12CCC(=O)C=C1C=C[C@@H]1[C@@H]2CC[C@@]2(C)[C@H]1CC[C@@]21CCC(=O)O1 measurename="inhibition at 10 µM" readoutunits=% obsvalue=16
compound=CC(=O)[C@@]1(O)CC[C@H]2[C@@H]3C[C@H](C)C4=CC(=O)C=C[C@]4(C)[C@@]3(F)[C@@H](O)C[C@@]21C measurename="inhibition at 10 µM" readoutunits=% obsvalue=18
compound=CCCCCCCCCCCCCCCCOP(=O)([O-])OCC[N+](C)(C)C measurename="inhibition at 10 µM" readoutunits=% obsvalue=4

* * *

measurementTarget: Cif (Pseudomonas aeruginosa (strain UCBPP-PA14))
assayOverview: Primary high throughput screen with fluorogenic substrate CMNGC;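 further: fluorescence of 200 µL reactions in 96-well plates read on a plate reader, inhibitor at tenfold molar excess over Cif enzyme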
Format: biochemical
conditionDescription: primary screen; test compounds at 10 μM, 1 μM Cif, 25 μM CMNGC, 60 minutes
Structures can show the parent of a compound that is named as a salt.
measureName: inhibition at 10 µM (%)

molecule=CC(=O)[C@@]1(O)CC[C@H]2[C@@H]3C[C@H](C)C4=CC(=O)C=C[C@]4(C)[C@@]3(F)[C@@H](O)C[C@@]21C readoutunits=% obsvalue=31
molecule="CN(C)CCCN1c2ccccc2CCc2ccc(Cl)cc21 [Clomipramine hydrochloride]" readoutunits=% obsvalue=51
molecule="NC(CO)C(=O)NNCc1ccc(O)c(O)c1O (stereo not drawn) [Benserazide hydrochloride]" readoutunits=% obsvalue=86
molecule=Nc1nc2c(ncn2CCC(CO)CO)c(=O)[nH]1 readoutunits=% obsvalue=45
molecule=Nc1nc(N)c2nc(-c3ccccc3)c(N)nc2n1 readoutunits=% obsvalue=35
molecule=S=c1nc[nH]c2nc[nH]c12 readoutunits=% obsvalue=32
molecule=C=CCc1ccc(O)c(OC)c1 readoutunits=% obsvalue=32
molecule="C[N+](C)(C)CC(=O)O [Betaine hydrochloride]" readoutunits=% obsvalue=33
molecule="O=C1CC2(CCCC2)CC(=O)N1CCCCN1CCN(c2ncccn2)CC1 [Buspirone hydrochloride]" readoutunits=% obsvalue=33

* * *

measurementTarget: Cif (Pseudomonas aeruginosa (strain UCBPP-PA14))
assayOverview: Screen of soluble epoxide hydrolase inhibitors for Cif inhibition
Format: biochemical
measureName: inhibition at 10 µM (%)

compound="CCC(=O)Oc1ccc(NC(=O)NC23CC4CC(CC(C4)C2)C3)cc1 [Entry 1]" measurementtarget="Cif (Pseudomonas aeruginosa (strain UCBPP-PA14))" readoutunits=% obsvalue=41
compound="CCC(=O)N1CCC(NC(=O)Nc2ccc([N+](=O)[O-])cc2)CC1 [Entry 10]" measurementtarget="Cif (Pseudomonas aeruginosa (strain UCBPP-PA14))" readoutunits=% obsvalue=44
compound="O=C(NC(=O)c1c(F)cccc1F)Nc1ccc(Cl)c(C(F)(F)F)c1 [Entry 6]" measurementtarget="Cif (Pseudomonas aeruginosa (strain UCBPP-PA14))" readoutunits=% obsvalue=38
compound="O=C(NC(=O)c1c(F)cccc1F)Nc1cc(Cl)cc(Cl)c1 [Entry 4]" measurementtarget="Cif (Pseudomonas aeruginosa (strain UCBPP-PA14))" readoutunits=% obsvalue=50
compound="Cc1ccc(-c2cc(C(F)(F)F)nn2-c2ccc(S(N)(=O)=O)cc2)cc1 [Entry 9]" measurementtarget="Cif (Pseudomonas aeruginosa (strain UCBPP-PA14))" readoutunits=% obsvalue=38
compound="CN(C(=O)NC(=O)c1c(F)cccc1F)c1ccc(Cl)cc1 [Entry 7]" measurementtarget="Cif (Pseudomonas aeruginosa (strain UCBPP-PA14))" readoutunits=% obsvalue=40
compound="Cc1cc(C)cc(NC(=O)NC(=O)c2c(F)cccc2F)c1 [Entry 3]" measurementtarget="Cif (Pseudomonas aeruginosa (strain UCBPP-PA14))" readoutunits=% obsvalue=39
